The entries below come with measured glycan array binding signal (z-score) values attached.
experimental system: Fuc(a1-2)[GalNAc(a1-3)]Gal(b1-4)GlcNAc
experiment: glycan array binding signal (z-score within array); higher = stronger binding
experimental setup: glycan notation: IUPAC condensed, linker removed
The entries come from a sample that favours the strongest signals as a whole.
Simply state the number, no unit and no words.

Below, 3 binders whose answers are already recorded.
{"binder": "OS9 (Arabidopsis thaliana) (protein) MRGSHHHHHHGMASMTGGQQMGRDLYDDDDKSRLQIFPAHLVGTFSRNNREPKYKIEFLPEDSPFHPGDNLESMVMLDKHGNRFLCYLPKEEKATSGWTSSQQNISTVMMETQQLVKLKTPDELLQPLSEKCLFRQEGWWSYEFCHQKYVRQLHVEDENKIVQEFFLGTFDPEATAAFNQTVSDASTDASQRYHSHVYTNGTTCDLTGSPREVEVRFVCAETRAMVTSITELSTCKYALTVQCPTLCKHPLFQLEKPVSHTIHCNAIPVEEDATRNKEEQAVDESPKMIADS", "observed result": -0.828}
{"binder": "CLEC-6 (Homo sapiens), Q8WXI8 (protein) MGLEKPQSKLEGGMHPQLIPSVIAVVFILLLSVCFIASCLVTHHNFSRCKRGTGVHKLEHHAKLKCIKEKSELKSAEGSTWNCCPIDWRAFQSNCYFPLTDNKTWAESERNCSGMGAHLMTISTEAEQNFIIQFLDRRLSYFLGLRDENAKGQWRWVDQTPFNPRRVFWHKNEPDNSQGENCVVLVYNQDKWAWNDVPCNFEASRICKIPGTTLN", "observed result": -0.239}
{"binder": "CCL2 (Coprinopsis cinerea), B3GA02 (protein) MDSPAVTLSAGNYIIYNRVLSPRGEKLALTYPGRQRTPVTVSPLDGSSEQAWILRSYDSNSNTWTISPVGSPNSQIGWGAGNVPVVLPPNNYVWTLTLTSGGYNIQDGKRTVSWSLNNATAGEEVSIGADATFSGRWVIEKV", "observed result": -0.286}

Recorded result, TIM-1 (Mus musculus), AAL35774 (protein) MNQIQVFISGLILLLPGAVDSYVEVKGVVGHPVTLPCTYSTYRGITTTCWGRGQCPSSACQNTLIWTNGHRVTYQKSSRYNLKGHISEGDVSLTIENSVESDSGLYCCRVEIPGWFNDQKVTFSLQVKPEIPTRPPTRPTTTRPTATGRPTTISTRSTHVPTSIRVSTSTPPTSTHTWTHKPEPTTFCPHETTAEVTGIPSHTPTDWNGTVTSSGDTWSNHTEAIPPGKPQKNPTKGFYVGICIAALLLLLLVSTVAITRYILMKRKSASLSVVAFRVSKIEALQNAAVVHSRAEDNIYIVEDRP , glycan array binding signal (z-score): -0.268
